Numbers sourced from PubChem BioAssay (NCATS).

assayProtocol: qHTS of pediatric cancer cell lines to identify multiple opportunities for drug repurposing: Primary screen for MG 63 (6-TG R) cells (AID 1347105); further: nearly all actives have a fitted effect of over 50% in size
conditions: MG 63 (6-TG R) viability, CellTiter-Glo, 48 h; series mostly up to 46 µM
Inconclusive results are not listed. The source made the active and inactive calls. The call rests on the fitted dose curve; in most records, active means well fitted cell-killing curve with a large enough effect; inconclusive means small, poorly fitted or top-dose-only effect; inactive means no such curve, though single readings can be large or run the other way.
Labels: active, inactive

{"compound": "CCOC(=O)C(C)(C)Oc1ccc(Cl)cc1", "labelValue": "inactive"}
{"compound": "Cn1c(=O)c2c(ncn2C)n(C)c1=O", "labelValue": "inactive"}
{"compound": "CCC1(C)CC(=O)NC1=O (stereo unspecified)", "labelValue": "inactive"}
{"compound": "CN1CCC(=C2c3ccccc3CC(=O)c3sccc32)CC1", "labelValue": "active"}
{"compound": "Clc1ccc2c(c1)C(N1CCNCC1)=Nc1ccccc1O2", "labelValue": "inactive"}
{"compound": "CS(=O)(=O)CCNCc1ccc(-c2ccc3ncnc(Nc4ccc(OCc5cccc(F)c5)c(Cl)c4)c3c2)o1", "labelValue": "active"}

----------
assayProtocol: qHTS of pediatric cancer cell lines to identify multiple opportunities for drug repurposing: Primary screen for control Hh wild type fibroblast cells (AID 1347106); further: nearly all actives have a fitted effect of over 55% in size
conditions: Hh wild-type fibroblast viability, CellTiter-Glo luminescence, 48 h; series mostly up to 46 µM
Records with an inconclusive call do not appear. Calls of active or inactive are those of the source. The call rests on the fitted dose curve; in most records, active means well fitted cell-killing curve with a large enough effect; inconclusive means small, poorly fitted or top-dose-only effect; inactive means flat fitted curve, though single readings scatter.
Possible outcomes: active, inactive

{"compound": "NCCCCCC(=O)O", "labelValue": "inactive"}
{"compound": "CN(C)CCOC(c1ccccc1)c1ccccc1", "labelValue": "inactive"}
{"compound": "C[C@@H]1CC(=O)NN=C1c1ccc(NN=C(C#N)C#N)cc1", "labelValue": "inactive"}
{"compound": "O=C1c2c(O)ccc(O)c2C(=O)c2c(NCCNCCO)ccc(NCCNCCO)c21", "labelValue": "active"}
{"compound": "CCc1cccc2c3c([nH]c12)C(CC)(CC(=O)O)OCC3 (configuration not stated)", "labelValue": "inactive"}
{"compound": "OCCN1CCN(CCCN2c3ccccc3Sc3ccc(C(F)(F)F)cc32)CC1", "labelValue": "inactive"}
{"compound": "OCCN(CCO)c1nc(N2CCCCC2)c2nc(N(CCO)CCO)nc(N3CCCCC3)c2n1", "labelValue": "inactive"}
{"compound": "CC1COc2c(N3CCN(C)CC3)c(F)cc3c(=O)c(C(=O)O)cn1c23 (configuration not stated)", "labelValue": "inactive"}
{"compound": "CC(C)(Oc1ccc(C2CC2(Cl)Cl)cc1)C(=O)O (configuration not stated)", "labelValue": "inactive"}
{"compound": "CC1(CN2CCC(n3c(=O)[nH]c4ccccc43)CC2)OCc2ccccc2-n2cccc21 (configuration not stated)", "labelValue": "inactive"}
{"compound": "CC(COc1ccccc1)N(CCCl)Cc1ccccc1 (configuration not stated)", "labelValue": "inactive"}
{"compound": "Cn1ccc2cc3c(cc21)CCN3C(=O)Nc1cccnc1", "labelValue": "inactive"}
{"compound": "CN1CCC(=C2c3ccccc3C=Cc3ccccc32)CC1", "labelValue": "inactive"}
{"compound": "Cc1cn([C@H]2C=C[C@@H](CO)O2)c(=O)[nH]c1=O", "labelValue": "inactive"}
{"compound": "CCOC(=O)c1ncn2c1CN(C)C(=O)c1cc(F)ccc1-2", "labelValue": "inactive"}
{"compound": "C[C@](N)(Cc1ccc(O)c(O)c1)C(=O)O", "labelValue": "inactive"}
{"compound": "CS(=O)(=O)Nc1ccc([N+](=O)[O-])cc1Oc1ccccc1", "labelValue": "inactive"}
{"compound": "Cc1ccc(-c2cc(C(F)(F)F)nn2-c2ccc(S(N)(=O)=O)cc2)cc1", "labelValue": "inactive"}
{"compound": "CC1(C)O[C@H]2CC(=O)OC[C@]23[C@H]2CC[C@@]4(C)[C@H](c5ccoc5)OC(=O)[C@H]5O[C@]54[C@]2(C)C(=O)C[C@@H]13", "labelValue": "inactive"}
{"compound": "CC[N+](CC)(CC)CCOc1cccc(OCC[N+](CC)(CC)CC)c1OCC[N+](CC)(CC)CC", "labelValue": "inactive"}
{"compound": "Cc1cnc(C(=O)NCCc2ccc(S(=O)(=O)NC(=O)NC3CCCCC3)cc2)cn1", "labelValue": "inactive"}
{"compound": "O=C1Cc2cc(CCN3CCN(c4nsc5ccccc45)CC3)c(Cl)cc2N1", "labelValue": "inactive"}

----------
assayProtocol: qHTS of pediatric cancer cell lines to identify multiple opportunities for drug repurposing: Confirmatory screen for Rh41 cells (AID 1347123);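 further: 48 h compound exposure; nearly all actives have a fitted effect of over 60% in size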
conditions: Rh41 rhabdomyosarcoma cells, viability/cytotoxicity qHTS; series mostly up to 45.9 µM
Experimental: Drug repurposing or repositioning has been offered as a strategy for drug development in oncology programs. […] [1] Shen, M et al. Quantitative high-throughput phenotypic screening of pediatric cancer cell lines identifies multiple opportunities for drug repurposing. […] Cells were assayed in growth media at a density of 500-1,000 cells/well. […] After a 15 min incubation at room temperature, samples were analyzed for luminescence intensity using a ViewLux High-throughput CCD imager equipped with clear filters.
Records with an inconclusive call do not appear. Activity calls are given as the source filed them. Calls follow the shape of the dose curve; as a rule, active = well fitted cell-killing curve with a large enough effect; inconclusive = small, poorly fitted or top-dose-only effect; inactive = no such curve, though single readings can be large or run the other way.
Possible outcomes: YES for active, NO for inactive

{"compound": "NC12CC3CC(CC(C3)C1)C2", "labelValue": "NO"}
{"compound": "CCCCc1oc2ccccc2c1C(=O)c1cc(I)c(OCCN(CC)CC)c(I)c1", "labelValue": "YES"}
{"compound": "CN1CCN(CCCN2c3ccccc3Sc3ccc(Cl)cc32)CC1", "labelValue": "YES"}
{"compound": "CC(C)Cc1ccc(C(C)C(=O)O)cc1 (stereo unspecified)", "labelValue": "YES"}
{"compound": "Clc1ccc2nsnc2c1NC1=NCCN1", "labelValue": "NO"}
{"compound": "O=C1c2c(O)ccc(O)c2C(=O)c2c(NCCNCCO)ccc(NCCNCCO)c21", "labelValue": "YES"}

----------
System: 7G8
assayProtocol: qHTS profiling for inhibitors of Plasmodium falciparum proliferation (AID 504749); further: nearly all actives have a fitted effect of over 60% in size
conditions: P. falciparum in erythrocytes, SYBR Green DNA, 72 h; series mostly up to 28.7 µM
Inconclusive results are not listed. Active and inactive are the calls of the source. Calls follow the shape of the dose curve; as a rule, active = well fitted inhibition curve with a large enough effect; inconclusive = small, poorly fitted or top-dose-only effect; inactive = flat fitted curve, though single readings scatter.
Labels: y for active, n for inactive

{"compound": "NCCCCCC(=O)O", "labelValue": "n"}
{"compound": "COC(=O)Nc1nc2ccc(C(=O)c3cccs3)cc2[nH]1", "labelValue": "n"}
{"compound": "Nc1nnc(-c2cccc(Cl)c2Cl)c(N)n1", "labelValue": "n"}
{"compound": "CN1CCN2c3ccccc3Cc3ccccc3C2C1 (configuration not stated)", "labelValue": "n"}
{"compound": "N[C@@H](Cc1c[nH]c2ccc(O)cc12)C(=O)O", "labelValue": "n"}
{"compound": "C[C@](N)(Cc1ccc(O)c(O)c1)C(=O)O", "labelValue": "n"}
{"compound": "CN(C)CCOC(c1ccccc1)c1ccccc1", "labelValue": "y"}

----------
Test system: Hek293T
assayProtocol: Primary qHTS to identify gynecologic anti-cancer compounds using libraries of approved drugs and bioactive compounds (AID 1345084); further: nearly all actives have a fitted effect of over 55% in size
conditions: Gynecologic cancer cell panel viability, ATPlite luminescence, 48 h, control line for the selectivity index; series mostly up to 57.5 µM
Records with an inconclusive call do not appear. Active and inactive are the calls of the source. Calls come from the whole dose curve; as a rule, active = well fitted cell-killing curve with a large enough effect; inconclusive = small, poorly fitted or top-dose-only effect, or effect the other way; inactive = flat fitted curve, though single readings scatter.
Possible outcomes: 1 = active, -1 = inactive

{"compound": "Clc1ccc(C(c2ccccc2Cl)C(Cl)Cl)cc1 (centres undefined)", "labelValue": -1}
{"compound": "COc1ccc2[nH]cc(CCNC(C)=O)c2c1", "labelValue": -1}
{"compound": "Cc1cnc(C(=O)NCCc2ccc(S(=O)(=O)NC(=O)NC3CCCCC3)cc2)cn1", "labelValue": -1}
{"compound": "CC(C)(Oc1ccc(C2CC2(Cl)Cl)cc1)C(=O)O (centres undefined)", "labelValue": -1}
{"compound": "Fc1ccc([C@@H]2CCNC[C@H]2COc2ccc3c(c2)OCO3)cc1", "labelValue": -1}
{"compound": "Nc1nnc(-c2cccc(Cl)c2Cl)c(N)n1", "labelValue": -1}
{"compound": "Cc1cc(C(C)(C)C)c(O)c(C)c1CC1=NCCN1", "labelValue": -1}
{"compound": "Cc1ccc(-c2cc(C(F)(F)F)nn2-c2ccc(S(N)(=O)=O)cc2)cc1", "labelValue": -1}
{"compound": "O=c1c(-c2ccc(O)cc2)coc2cc(O)cc(O)c12", "labelValue": -1}
{"compound": "O=c1[nH]cc(F)c(=O)[nH]1", "labelValue": -1}
{"compound": "NC(CO)C(=O)NNCc1ccc(O)c(O)c1O (centres undefined)", "labelValue": -1}
{"compound": "NS(=O)(=O)c1cc2c(cc1Cl)NCNS2(=O)=O", "labelValue": -1}
{"compound": "Clc1ccc2c(c1)C(N1CCNCC1)=Nc1ccccc1O2", "labelValue": -1}
{"compound": "CC(C)Cc1ccc(C(C)C(=O)O)cc1 (centres undefined)", "labelValue": -1}
{"compound": "O=C(CCCN1CCC(O)(c2ccc(Cl)cc2)CC1)c1ccc(F)cc1", "labelValue": -1}
{"compound": "CCOC(=O)Nc1ccc(NCc2ccc(F)cc2)nc1N", "labelValue": -1}
{"compound": "O=C1Cc2cc(CCN3CCN(c4nsc5ccccc45)CC3)c(Cl)cc2N1", "labelValue": -1}
{"compound": "CCc1cccc2c3c([nH]c12)C(CC)(CC(=O)O)OCC3 (centres undefined)", "labelValue": -1}
{"compound": "C[C@](N)(Cc1ccc(O)c(O)c1)C(=O)O", "labelValue": -1}
{"compound": "COc1ccc(C2CNC(=O)C2)cc1OC1CCCC1 (centres undefined)", "labelValue": -1}
{"compound": "CC[C@@]1(O)C(=O)OCc2c1cc1n(c2=O)Cc2cc3c(CN(C)C)c(O)ccc3nc2-1", "labelValue": 1}
{"compound": "CC(=O)OCC(CCn1cnc2cnc(N)nc21)COC(C)=O", "labelValue": -1}
{"compound": "CC(C)NCC(O)c1ccc(O)c(O)c1 (centres undefined)", "labelValue": -1}
{"compound": "COc1ccc2c(c1)c(CC(=O)O)c(C)n2C(=O)c1ccc(Cl)cc1", "labelValue": -1}
